- target: DLG4_1, P78352
- Sequence (P78352 62-152): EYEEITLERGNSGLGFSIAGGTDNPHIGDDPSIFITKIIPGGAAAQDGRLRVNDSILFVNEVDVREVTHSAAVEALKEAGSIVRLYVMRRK
- test.details: holdup assay
- Set-up: key: below the threshold = too weak to quantify, mostly under pKd 3.1 to 4
- assay.context: plain residues with an end cap or a label only (N-terminal biotin on a linker: ttds)
endpoint.label: pKd
Number, no unit, nothing else.

Reported pKd, binder QRPYRRESEI [KCNJ12, Q14500] : ____
4.22

Reported pKd, binder SSIDLWETAL [SLC15A5, A6NIM6] : ____
4.29

Reported pKd, binder SHSSKGETAV [FZD7, O75084] : ____
4.4

Reported pKd, binder FVETQHQTQV [FAT3, Q8TDW7] : ____
4.36

Reported pKd, binder PPRQRSETQV [HPV82-E6, Q9IR59] : ____
4.65

Reported pKd, binder KLVIKTETTV [RASSF6, Q6ZTQ3] : ____
5.04

Reported pKd, binder SGGKRKETLV [NET1, Q7Z628] : ____
5.21

Reported pKd, binder GRLLGLETNV [ARHGEF26, Q96DR7] : ____
4.68

Reported pKd, binder KQVVPFSSSV [GDA, Q9Y2T3] : ____
3.83

Reported pKd, binder PSRDRKETSI [RALBP1, Q15311] : ____
3.97

Reported pKd, binder NPDALPETLV [ARHGAP6, O43182] : ____
4.13

Reported pKd, binder SRSRRRETAL [HPV33-E6, P06427] : ____
4.57
